Test system: U2OS
Assay: Incucyte cell viability with U2OS; note: filed as whole numbers so only -1 and 0 and 1 occur
Format: toxicity, cell-based
Conditions: human, 18 h, 10 µM, compound concentration 10 uM, replicate number 1, timepoint 18 hours
metric.name: Growth Rate
Keep it simple and answer with nothing but the number.

O=C(Cc1ccc(-c2ccc(OCCN3CCOCC3)cc2)cn1)NCc1ccccc1 [TIRBANIBULIN]; 0
CCN1CCN(Cc2ccc(Nc3ncc(F)c(-c4cc(F)c5nc(C)n(C(C)C)c5c4)n3)nc2)CC1.CS(=O)(=O)O; 0
NS(=O)(=O)c1c(Cl)ccc(NC(=O)Nc2cccc(Cl)c2Cl)c1O; 1
COc1ccc(-c2ccc3c(N4CCOCC4)nc(N4C[C@@H](C)O[C@@H](C)C4)nc3n2)cc1CO [Ku-0063794]; 0
CCc1cccc(CC)c1NC(=O)c1nn(C)c2c1CCc1cnc(Nc3ccc(C(=O)NC4CCN(C)CC4)cc3OC(F)(F)F)nc1-2; 0

Lookup: # return recorded Growth Rate for entry CC(C)OC(=O)C1=CN(C(=O)c2ccc(F)c(F)c2)CC(C)(C)c2c1[nH]c1ccccc21 [TUROFEXORATE ISOPROPYL]
Found: 0

Lookup: # return recorded Growth Rate for entry Cc1oncc1C(=O)Nc1ccc(C(F)(F)F)cc1 [LEFLUNOMIDE]
Found: 1

Lookup: # return recorded Growth Rate for entry `CCOc1cc(C(=O)N2CCC(N3CCN(C)CC3)CC2)ccc1Nc1ncc2c(n1)N(C1CCCC1)c1ccccc1C(=O)N2C`
Found: 0

Lookup: # return recorded Growth Rate for entry `CC[C@@H]1CN2C(=O)N(C)c3nc(-c4ccccc4)[nH]c3C2=N1.Cl`
Found: 1

Lookup: # return recorded Growth Rate for entry `O=C(Nc1ccc(-c2ccnc(Nc3ccc(N4CCOCC4)cc3)n2)cc1)[C@@H]1CCCN1`
Found: 1

---

System: HEK-293T
Experiment: Multiplex assay against HEK293T
Assay type: toxicity, cell-based
Details: human, 24 h, 1 µM, compound concentration 1 uM, replicate 1
metric.name: Population Membrane Permeable-Phenotype (%)
// return numeric value only (unit: %, not printed)

COc1ccc(S(=O)(=O)N(CCO)c2ccccc2CN(C)C/C=C/c2ccc(Cl)cc2)cc1.O=P(O)(O)O; 7
CCNc1cc(N[C@H]2CC[C@H](O)CC2)nc(Nc2ccc3c(ccn3Cc3ccccc3)c2)n1; 8
CCN1CCN(Cc2ccc(Nc3ncc(F)c(-c4cc(F)c5nc(C)n(C(C)C)c5c4)n3)nc2)CC1.CS(=O)(=O)O; 0
O=C(Nc1ccc(Cl)cc1)Nc1cccc(-c2cccc(N3CCCC3)n2)c1; 9
CCc1cccc(CC)c1NC(=O)c1nn(C)c2c1CCc1cnc(Nc3ccc(C(=O)NC4CCN(C)CC4)cc3OC(F)(F)F)nc1-2; 1
CCn1cc(-c2ccnc3[nH]c(-c4cccc(CN(C)C)c4)cc23)c(-c2ccc(NC(=O)N(C)C)cc2)n1 [GSK-1070916]; 18
CCN1CCN(c2ccc(Nc3cc(N(C)C(=O)Nc4c(Cl)c(OC)cc(OC)c4Cl)ncn3)cc2)CC1 [INFIGRATINIB]; 10

Lookup: # return recorded Population Membrane Permeable-Phenotype (%) for entry `O=C1N/C(=N/c2ccccc2F)S/C1=C\c1ccc(C(=O)O)cc1`
Found: 3

---

Test system: HEK-293T
Assay: Multiplex assay against HEK293T
Type: toxicity, cell-based
Settings: human, 24 h, 10 µM, compound concentration 10 uM, replicate 1
Population Mitochondria Different-Phenotype (%) values by entry
// return numeric value only (unit: %, not printed)

Some entries whose results are on file:
Cc1ccc2nc(NCCN)c3ncc(C)n3c2c1.O=C(O)C(F)(F)F.O=C(O)C(F)(F)F; 18
NC(=O)c1cccc(-c2cc(Nc3ccc(OC(F)(F)F)cc3)ncn2)c1; 4
CCOc1cc2ncc(C#N)c(Nc3ccc(OCc4ccccn4)c(Cl)c3)c2cc1NC(=O)/C=C/CN(C)C [NERATINIB]; 19
COc1cc(N2CCN(C)CC2)ccc1Nc1ncc2c(n1)N(C)c1ccccc1C(=O)N2C; 96
CCCS(=O)(=O)c1nc(NC2CC2)cc(-c2ccc3c(ccn3C3CC(C)(C)NC(C)(C)C3)c2)n1; 5

Lookup: # return recorded Population Mitochondria Different-Phenotype (%) for entry `Cl.Oc1ccc2c3c1O[C@H]1c4[nH]c5c(c4C[C@@]4(O)[C@@H](C2)N(CC2CC2)CC[C@]314)C[C@@]1(O)[C@H]2Cc3ccc(O)c4c3[C@@]1(CCN2CC1CC1)[C@H]5O4`
Found: 54

---

System: U2OS
Experiment: Multiplex assay against U2OS
Assay type: toxicity, cell-based
Settings: human, 12 h, 1 µM, compound concentration 1 uM, replicate 1
Population Mitotic Cells (%) values by entry
// return numeric value only (unit: %, not printed)

NC(=O)c1cccc(-c2cc(Nc3ccc(OC(F)(F)F)cc3)ncn2)c1; 72
O=C1N/C(=N/c2ccccc2F)S/C1=C\c1ccc(C(=O)O)cc1; 66

Lookup: Under U2OS: report Population Mitotic Cells (%) of `CCCn1c(=O)c2[nH]c(-c3cnn(Cc4cccc(C(F)(F)F)c4)c3)nc2n(CC)c1=O` .
Found: 71

Lookup: Under U2OS: report Population Mitotic Cells (%) of CN1CCC(=C2c3ccccc3CC(=O)c3sccc32)CC1.O=C(O)/C=C/C(=O)O [KETOTIFEN FUMARATE] .
Found: 36

Lookup: Under U2OS: report Population Mitotic Cells (%) of `Cc1cn(-c2cc(NC(=O)c3ccc(C)c(Nc4nccc(-c5cccnc5)n4)c3)cc(C(F)(F)F)c2)cn1` .
Found: 53

---

System: HEK-293T
Assay: Multiplex assay against HEK293T
Format: toxicity, cell-based
Settings: human, 12 h, 1 µM, compound concentration 1 uM, replicate 1
Population Membrane Permeable-Phenotype (%) values by entry
// return numeric value only (unit: %, not printed)

CCCn1c(=O)c2[nH]c(-c3cnn(Cc4cccc(C(F)(F)F)c4)c3)nc2n(CC)c1=O; 2
CCOc1cc(C(=O)N2CCC(N3CCN(C)CC3)CC2)ccc1Nc1ncc2c(n1)N(C1CCCC1)c1ccccc1C(=O)N2C; 5
COc1cccc2cc(-c3nc([C@H]4CC[C@H](C(=O)O)CC4)n4ncnc(N)c34)[nH]c12; 3
O=C(Nc1cccnn1)N1CCC(=Cc2cccc(Oc3ccc(C(F)(F)F)cn3)c2)CC1; 10

Next:
Lookup: # return recorded Population Membrane Permeable-Phenotype (%) for entry `O=C(Nc1ccc(Cl)cc1)Nc1cccc(-c2cccc(N3CCCC3)n2)c1`
Found: 2

---

Tested on: Fibroblast
Experiment: Multiplex assay against human fibroblast
Type: toxicity, cell-based
Conditions: 24 h, 10 µM, compound concentration 10 uM, replicate 1
metric.name: Population Normal (%)
// return numeric value only (unit: %, not printed)

CN1CCN(C(=O)C(C)(C)c2ccc(C(=O)Nc3cn4cc(-c5cc(C(C)(C)C)cc(C(C)(C)C)c5)ccc4n3)cc2)CC1; 89

Next:
Lookup: # return recorded Population Normal (%) for entry `C=C1/C(=C\C=C2/CCC[C@]3(C)[C@@H]([C@H](C)/C=C/[C@H](C)C(C)C)CC[C@@H]23)C[C@@H](O)C[C@@H]1O`
Found: 90

---

Tested on: Fibroblast
Assay: Multiplex assay against human fibroblast
Assay type: toxicity, cell-based
Conditions: 12 h, 10 µM, compound concentration 10 uM, replicate 2
Record YES whenever Population Hoechst High Intensity Objects (%) is at 30% or higher; record NO when lower.

Answered examples (5):
CCCS(=O)(=O)Nc1ccc(F)c(C(=O)c2c[nH]c3ncc(Cl)cc23)c1F; YES
COc1ccc(-c2ccc3c(N4CCOCC4)nc(N4C[C@@H](C)O[C@@H](C)C4)nc3n2)cc1CO; YES
S=C(NCCCc1c[nH]cn1)NCCCN(Cc1ccc(Cl)c(Cl)c1)c1ccc(Br)cn1; NO
COCC(=O)NC/C=C/c1ccc2ncnc(Nc3ccc(Oc4ccc(C)nc4)c(C)c3)c2c1; NO
CN1C2CCC1CC(OC(c1ccc(F)cc1)c1ccc(F)cc1)C2.Cl (stereo not drawn); NO

Lookup: Population Hoechst High Intensity Objects (%) >= 30% for `CCN1CCN(c2ccc(Nc3cc(N(C)C(=O)Nc4c(Cl)c(OC)cc(OC)c4Cl)ncn3)cc2)CC1` ?
Found: YES

Lookup: Population Hoechst High Intensity Objects (%) >= 30% for `O=C1NC(=O)C(c2cnc3ccccn23)=C1c1cn2c3c(cc(F)cc13)CN(C(=O)N1CCCCC1)CC2` ?
Found: NO

---

Population Mitotic Cells (%) values by entry
Test system: U2OS
Test: Multiplex assay against U2OS
Assay type: toxicity, cell-based
Conditions: human, 24 h, 10 µM, compound concentration 10 uM, replicate 2
// return numeric value only (unit: %, not printed)

Some entries whose results are on file:
COc1cc2ncnc(Nc3ccc(F)c(Cl)c3)c2cc1NC(=O)/C=C/CN1CCCCC1 [DACOMITINIB ANHYDROUS]; 50
CN1C2CCC1CC(OC(c1ccc(F)cc1)c1ccc(F)cc1)C2.Cl (configuration not stated); 20
Cc1cn(-c2cc(NC(=O)c3ccc(C)c(Nc4nccc(-c5cccnc5)n4)c3)cc(C(F)(F)F)c2)cn1; 100
CCc1cccc(CC)c1NC(=O)c1nn(C)c2c1CCc1cnc(Nc3ccc(C(=O)NC4CCN(C)CC4)cc3OC(F)(F)F)nc1-2; 50
Cl.Oc1ccc2c3c1O[C@H]1c4[nH]c5c(c4C[C@@]4(O)[C@@H](C2)N(CC2CC2)CC[C@]314)C[C@@]1(O)[C@H]2Cc3ccc(O)c4c3[C@@]1(CCN2CC1CC1)[C@H]5O4; 23
CN(C)C(=O)C(CCN1CCC(O)(c2ccc(Cl)cc2)CC1)(c1ccccc1)c1ccccc1.Cl [LOPERAMIDE HYDROCHLORIDE]; 1

Next:
Lookup: # return recorded Population Mitotic Cells (%) for entry `Cc1cc(C)c(S(=O)(=O)N(Cc2ccc(-c3cccc(S(C)(=O)=O)c3)cc2)Cc2ccc(C(F)(F)F)o2)c(C)c1`
Found: 85
